Test system: Lefty1
Assay: Lefty1 protein binding to printed compounds – biochemical, small-molecule microarray, 635/667 nm fluorescence, primary screen (AID 1139)
Conditions: fluorescence 635/667, higher = more signal
Everything with composite z-score lower than -0.07 is no (0); everything else, including exactly -0.07, is yes (1).

| molecule | category-label |
| --- | --- |
| COc1ccc(C#Cc2ccc3c(c2)[C@]2(C(=O)N3)[C@H](c3ccc(OCCO)cc3)N3[C@H](c4ccccc4)[C@H](c4ccccc4)OC(=O)[C@H]3[C@@H]2C(=O)NC[C@H](O)c2ccccc2)cc1 | yes (1) |
| COc1ccc([Si](C)(C)[C@@H]2[C@@H](CCO)O[C@]3(C(=O)N(Cc4ccccc4)c4ccc(N5C(=O)c6cccc7cccc5c67)cc43)[C@H]2C)cc1 | no (0) |
| COc1cc(NN2C(C(O)c3ccco3)C=CC3C(=O)N(C)C(=O)C32)cc(OC)c1OC (configuration not stated) | yes (1) |
| O=c1cccc(-c2ccc([N+](=O)[O-])cc2)o1 | yes (1) |
| CC(C)c1ccc(NN2C(C(O)c3ccc(C#N)cc3)C=CC3C(=O)N(c4ccccc4)C(=O)C32)cc1 (configuration not stated) | no (0) |
| CC(C)NC(=O)[C@@]1(C)c2ccccc2C(=O)N(Cc2ccc(OC(F)(F)F)cc2)[C@H]1c1ccc(CO)cc1 | no (0) |
